Numbers sourced from ChEMBL document CHEMBL1145015.

- experiment: Partition coefficient (logP)
- Type: physicochemical
- recorded-conditions: octanol/water
Binarize logP at 0.2; below is criterion met, at or above is criterion not met.

Study these solved cases before continuing.
compound-structure	class
Cc1cccc2c1[n+]([O-])nc(N)[n+]2[O-]	criterion not met
Cc1ccc2c(c1)[n+]([O-])nc(N)[n+]2[O-]	criterion met
Nc1n[n+]([O-])c2cccc(Cl)c2[n+]1[O-]	criterion met
Nc1n[n+]([O-])c2c(C(F)(F)F)cccc2[n+]1[O-]	criterion not met
CS(=O)(=O)c1ccc2c(c1)[n+]([O-])nc(N)[n+]2[O-]	criterion met

*Q* Please indicate whether the reported logP of `Nc1n[n+]([O-])c2cc(C(F)(F)F)ccc2[n+]1[O-]` is strictly below 0.2.
*A* criterion not met

*Q* Please indicate whether the reported logP of `Nc1n[n+]([O-])c2c(Cl)cccc2[n+]1[O-]` is strictly below 0.2.
*A* criterion met

*Q* Please indicate whether the reported logP of `CCN(CC)c1cccc2c1[n+]([O-])nc(N)[n+]2[O-]` is strictly below 0.2.
*A* criterion not met

* * *

- experiment: Interexperimental difference between the hypoxic and aerobic cytotoxicity using human adenocarcinoma HT-29 cell line
- Type: functional
Listed here: items and their measured HCR.

A selection of reference data follows.
compound	observed-property	result
Nc1n[n+]([O-])c2ccccc2[n+]1[O-] [TIRAPAZAMINE]	HCR	37
Nc1n[n+]([O-])c2c(F)cccc2[n+]1[O-]	HCR	4.1
CS(=O)(=O)c1cccc2c1[n+]([O-])nc(N)[n+]2[O-]	HCR	4.5
Nc1n[n+]([O-])c2cc(F)ccc2[n+]1[O-]	HCR	21.7
Nc1n[n+]([O-])c2ccc(Cl)cc2[n+]1[O-]	HCR	33

Now look at this entry.
*Q* Please look up its HCR: `Nc1n[n+]([O-])c2cc(C(F)(F)F)ccc2[n+]1[O-]`
*A* 35.7

* * *

Listed here: items and their measured pIC50.
- Tested on: HT-29
- experiment: Inhibitory concentration against human adenocarcinoma HT-29 cell line under aerobic condition
- Format: functional, cell-based
Field pIC50 (float): negative decimal logarithm of the concentration in molar.

A selection of reference data follows.
compound	pIC50
Nc1n[n+]([O-])c2cc(C(F)(F)F)ccc2[n+]1[O-]	4.10
CS(=O)(=O)c1cccc2c1[n+]([O-])nc(N)[n+]2[O-]	4.16
Nc1n[n+]([O-])c2c(Cl)cccc2[n+]1[O-]	5.11
Nc1n[n+]([O-])c2cc(Cl)ccc2[n+]1[O-]	4.70
Nc1n[n+]([O-])c2ccccc2[n+]1[O-] [TIRAPAZAMINE]	3.71

*Q* # get_value(readout= pIC50, system= HT-29) for `Nc1n[n+]([O-])c2ccc(Cl)cc2[n+]1[O-]`
*A* 4.39

* * *

- experiment: Concentration required to reduce plating efficiency to 10 percent of controls, under aerobic conditions in mouse SCCVII tumor cells.
- Format: functional, SCC-7
observed-property: C10 (µM)
Report as a plain number; the unit µM is understood.

A selection of reference data follows.
compound-structure	C10, µM
Nc1n[n+]([O-])c2cc(Cl)ccc2[n+]1[O-]	271
Nc1n[n+]([O-])c2ccc(C(F)(F)F)cc2[n+]1[O-]	110
COc1cccc2c1[n+]([O-])c(N)n[n+]2[O-]	47.9

Now look at this entry.
*Q* Please look up its C10: `CCCCS(=O)(=O)c1cccc2c1[n+]([O-])nc(N)[n+]2[O-]`
*A* 175
